- system tested: T1, human insulin receptor isoform A with C-terminal C9 tag (human, UniProt P06213 28-1382)
- T1 construct: membranes of stably transfected HEK293 cells; also called hIR-A; human IR-A
- test: 125I-insulin competition SPA, hIR-A membranes, 0.1% BSA
Reported Ki values follow for various binders
measured endpoint: Ki (nM)

binder	measured result
INS Analog 16 (other, single-chain insulin B-L2-A-L1-VHH fusion; also called Ex. 16) FVSQHLCGSHLVEALWLVCGERGFFYTPKTGGGGGGGIVEQCCTSICSLYQLENYCGPGPAPGPAPGPAPGPAPGPAPGPAPGPAPGPAEVQLLESGGGLVQPGGSLRLSCAASGRYIDETAVAWFRQAPGKEREFVAGIGGGVDITYYADSVKGRFTISRDNSKNTLYLQMNSLRPEDTAVYYCAARPGRPLITSKVADLYPYWGQGTLVTVSSPP	46
INS Analog 15 (other, single-chain insulin B-L2-A-L1-VHH fusion; also called Ex. 15) FVSQHLCGSHLVEALFLVCGERGFFYTPKTGGGGGGGIVEQCCTSICSLYQLENYCGPGPAPGPAPGPAPGPAPGPAPGPAPGPAPGPAEVQLLESGGGLVQPGGSLRLSCAASGRYIDETAVAWFRQAPGKEREFVAGIGGGVDITYYADSVKGRFTISRDNSKNTLYLQMNSLRPEDTAVYYCAARPGRPLITSKVADLYPYWGQGTLVTVSSPP	39.2
